- procedure.text: Tissue distribution of SDC-TRAPs in tumor-bearing mice (plasma, tumor, heart)
- protocol.conditions: mouse, in vivo, Tumor/Plasma Ratio
endpoint.name: Kp at 1 h

Query: Kp at 1 h; subject: "CCc1c2c(nc3ccc(O)cc13)-c1cc3c(c(=O)n1C2)COC(=O)[C@]3(O)CC"
0.07

====

- procedure.text: Stability in mouse plasma
- Type: in vitro ADME
- protocol.conditions: mouse plasma; 1 h, 37° C.
endpoint.name: % Remaining (%)
# unit: % | format: bare number

Query: % Remaining; subject: CCNC(=O)c1nnc(-c2cc(C(C)C)c(O)cc2O)n1-c1ccc2c(ccn2CCC2CCN(C(=O)Oc3ccc4nc5c(c(CC)c4c3)Cn3c-5cc4c(c3=O)COC(=O)[C@]4(O)CC)CC2)c1 [SDC-TRAP-0205]
58.4

Query: % Remaining; subject: CCNC(=O)c1nnc(-c2cc(C(C)C)c(O)cc2O)n1-c1ccc(Oc2ccc(C(=O)N3CCC(OC(=O)OC4(CC)C(=O)OCc5c4cc4n(c5=O)Cc5c-4nc4ccc(O)cc4c5CC)CC3)cc2)cc1 (stereo not shown) [SDC-TRAP-0203]
71.2

Query: % Remaining; subject: CCc1c2c(nc3ccc(OC(=O)N4CCN(c5ccc(-n6c(O)nnc6-c6cc(C(C)C)c(O)cc6O)cc5)CC4)cc13)-c1cc3c(c(=O)n1C2)COC(=O)C3(O)CC (stereo not shown) [SDC-TRAP-0045]
45

Query: % Remaining; subject: CCc1c2c(nc3ccc(O)cc13)-c1cc3c(c(=O)n1C2)COC(=O)C3(CC)OC(=O)N1CCN(Cc2ccc(-n3c(O)nnc3-c3cc(C(C)C)c(O)cc3O)cc2)CC1 (stereo not shown) [SDC-TRAP-0047]
89

Query: % Remaining; subject: CCNC(=O)c1nnc(-c2cc(C(C)C)c(O)cc2O)n1-c1ccc(CN2CCC(C(=O)N3CCN(C(=O)Oc4ccc5nc6c(c(CC)c5c4)Cn4c-6cc5c(c4=O)COC(=O)C5(O)CC)C(C)C3)CC2)cc1 (stereo not shown) [SDC-TRAP-0185]
68.1

Query: % Remaining; subject: CCc1c2c(nc3ccc(O)cc13)-c1cc3c(c(=O)n1C2)COC(=O)[C@@]3(CC)OC(=O)N1CCC(CCc2ccc(-n3c(O)nnc3-c3cc(C(C)C)c(O)cc3O)cc2)CC1 [SDC-TRAP-0104]
95.5

Query: % Remaining; subject: CCc1c2c(nc3ccc(OC(=O)N(C)CCCCN4CCN(Cc5ccc(-n6c(O)nnc6-c6cc(C(C)C)c(O)cc6O)cc5)CC4)cc13)-c1cc3c(c(=O)n1C2)COC(=O)C3(O)CC (stereo not shown) [SDC-TRAP-0044]
61

Query: % Remaining; subject: CCNC(=O)c1nnc(-c2cc(C(C)C)c(O)cc2O)n1-c1ccc(Oc2ccc(C(=O)N3CCC(N(C)C(=O)Oc4ccc5nc6c(c(CC)c5c4)Cn4c-6cc5c(c4=O)COC(=O)C5(O)CC)CC3)cc2)cc1 (stereo not shown) [SDC-TRAP-0180]
72.4

Query: % Remaining; subject: CCNC(=O)c1nnc(-c2cc(C(C)C)c(O)cc2O)n1-c1ccc2c(ccn2CCC2CCN(C(=O)O[C@]3(CC)C(=O)OCc4c3cc3n(c4=O)Cc4c-3nc3ccc(O)cc3c4CC)CC2)c1 [SDC-TRAP-0208]
86.1

Query: % Remaining; subject: CCc1c2c(nc3ccc(O)cc13)-c1cc3c(c(=O)n1C2)COC(=O)C3(CC)OC(=O)CN1CCC(Cc2ccc(-n3c(O)nnc3-c3cc(C(C)C)c(O)cc3O)cc2)CC1 (stereo not shown) [SDC-TRAP-0071]
102

Query: % Remaining; subject: CCNC(=O)c1nnc(-c2cc(C(C)C)c(O)cc2O)n1-c1ccc(OC2CCN(C(=O)CN(C)C(=O)Oc3ccc4nc5c(c(CC)c4c3)Cn3c-5cc4c(c3=O)COC(=O)[C@]4(O)CC)CC2)cc1 [SDC-TRAP-0206]
68.6

Query: % Remaining; subject: CCc1c2c(nc3ccc(OC(=O)N(C)C4CCN(C(=O)CCn5ccc6cc(-n7c(O)nnc7-c7cc(C(C)C)c(O)cc7O)ccc65)CC4)cc13)-c1cc3c(c(=O)n1C2)COC(=O)C3(O)CC (stereo not shown) [SDC-TRAP-0184]
18.0

Query: % Remaining; subject: CCNC(=O)c1nnc(-c2cc(C(C)C)c(O)cc2O)n1-c1ccc(C(=O)N2CCN(C(=O)COC(=O)OC3(CC)C(=O)OCc4c3cc3n(c4=O)Cc4c-3nc3ccc(O)cc3c4CC)CC2)cc1 (stereo not shown) [SDC-TRAP-0202]
21.2

Query: % Remaining; subject: CCNC(=O)c1nnc(-c2cc(C(C)C)c(O)cc2O)n1-c1ccc(CN2CCC(C(=O)N3CCC(C(=O)OC4(CC)C(=O)OCc5c4cc4n(c5=O)Cc5c-4nc4ccc(O)cc4c5CC)CC3)CC2)cc1 (stereo not shown) [SDC-TRAP-0076]
96

Query: % Remaining; subject: CCc1c2c(nc3ccc(O)cc13)-c1cc3c(c(=O)n1C2)COC(=O)C3(CC)OC(=O)N(C)CCOCCn1ccc2cc(-n3c(O)nnc3-c3cc(C(C)C)c(O)cc3O)ccc21 (stereo not shown) [SDC-TRAP-0037]
95

Query: % Remaining; subject: CCNC(=O)c1nnc(-c2cc(C(C)C)c(O)cc2O)n1-c1ccc(OC2CCN(C(=O)C3CCCCN3C(=O)Oc3ccc4nc5c(c(CC)c4c3)Cn3c-5cc4c(c3=O)COC(=O)[C@]4(O)CC)CC2)cc1 (stereo partly shown) [SDC-TRAP-0216]
67.7

Query: % Remaining; subject: CCc1c2c(nc3ccc(OC(=O)N4CCC(Cn5ccc6cc(-n7c(O)nnc7-c7cc(C(C)C)c(O)cc7O)ccc65)CC4)cc13)-c1cc3c(c(=O)n1C2)COC(=O)C3(O)CC (stereo not shown) [SDC-TRAP-0186]
57.9

Query: % Remaining; subject: CCc1c2c(nc3ccc(OC(=O)N4CCN(Cc5ccc(-n6c(O)nnc6-c6cc(C(C)C)c(O)cc6O)cc5)CC4C)cc13)-c1cc3c(c(=O)n1C2)COC(=O)C3(O)CC (stereo not shown) [SDC-TRAP-0220]
78.3

Query: % Remaining; subject: CCNC(=O)c1nnc(-c2cc(C(C)C)c(O)cc2O)n1-c1ccc(CN2CCC(C(=O)N3CCC(N(C)C(=O)Oc4ccc5nc6c(c(CC)c5c4)Cn4c-6cc5c(c4=O)COC(=O)C5(O)CC)CC3)CC2)cc1 (stereo not shown) [SDC-TRAP-0172]
74.7

====

- procedure.text: Tissue distribution of SDC-TRAPs in tumor-bearing mice (plasma, tumor, heart)
- protocol.conditions: mouse, in vivo, tissue distribution of SDC-TRAP-0076; 1 h; read-out: Tumor/Plasma Ratio
endpoint.name: Kp
Reply with the value as a number alone.

Query: Kp; subject: CCNC(=O)c1nnc(-c2cc(C(C)C)c(O)cc2O)n1-c1ccc(CN2CCC(C(=O)N3CCC(C(=O)OC4(CC)C(=O)OCc5c4cc4n(c5=O)Cc5c-4nc4ccc(O)cc4c5CC)CC3)CC2)cc1 (stereo not shown)
0.17

====

- procedure.text: Tissue distribution of SDC-TRAPs in tumor-bearing mice (plasma, tumor, heart)
- protocol.conditions: mouse, in vivo, tissue distribution of SDC-TRAP-0076; 6 h; read-out: Tumor/Plasma Ratio
endpoint.name: Kp
Reply with the value as a number alone.

Query: Kp; subject: CCNC(=O)c1nnc(-c2cc(C(C)C)c(O)cc2O)n1-c1ccc(CN2CCC(C(=O)N3CCC(C(=O)OC4(CC)C(=O)OCc5c4cc4n(c5=O)Cc5c-4nc4ccc(O)cc4c5CC)CC3)CC2)cc1 (stereo not shown)
2.25

====

- procedure.text: Stability in mouse plasma
- Assay type: in vitro ADME
- protocol.conditions: mouse, plasma, 1 h, 10 μM
endpoint.name: % Remaining

Query: % Remaining; subject: CCc1c2c(nc3ccc(OC(=O)N4CCC(CCn5ccc6cc(-n7c(O)nnc7-c7cc(C(C)C)c(O)cc7O)ccc65)CC4)cc13)-c1cc3c(c(=O)n1C2)COC(=O)[C@]3(O)CC [SDC-TRAP-0063]
11.1%

Query: % Remaining; subject: CC(C)c1cc(-c2nnc(O)n2-c2ccc(CN3CCN(C(=O)Oc4ccc(COC(=O)Nc5cccc6c5CN(C5CCC(=O)NC5=O)C6=O)cc4)CC3)c(F)c2)c(O)cc1O (stereo not shown) [SDC-TRAP-0171]
17.7%

Query: % Remaining; subject: CCc1c2c(nc3ccc(OCC(=O)N(C)CCOCCn4ccc5cc(-n6c(O)nnc6-c6cc(C(C)C)c(O)cc6O)ccc54)cc13)-c1cc3c(c(=O)n1C2)COC(=O)C3(O)CC (stereo not shown) [SDC-TRAP-0028]
41%

Query: % Remaining; subject: CCNC(=O)c1nnc(-c2cc(C(C)C)c(O)cc2O)n1-c1ccc(Oc2ccc(OC(=O)N(C)CCOC(=O)Nc3cccc4c3CN(C3CCC(=O)NC3=O)C4=O)cc2)cc1 (stereo not shown)
51.2%

Query: % Remaining; subject: CCNC(=O)c1nnc(-c2cc(C(C)C)c(O)cc2O)n1-c1ccc(CN2CCC(C(=O)N(C)CCCOC(=O)Nc3cccc4c3CN(C3CCC(=O)NC3=O)C4=O)CC2)cc1 (stereo not shown) [SDC-TRAP-0231]
98.3%

Query: % Remaining; subject: CCNC(=O)c1nnc(-c2cc(C(C)C)c(O)cc2O)n1-c1ccc(C(=O)N2CCN(c3cc(C)c(OC(=O)Nc4cccc5c4CN(C4CCC(=O)NC4=O)C5=O)c(C)c3)CC2)cc1 (stereo not shown) [SDC-TRAP-0178]
82.0%

Query: % Remaining; subject: COc1cc(O)c(-c2nnc(C(=O)NC(C)C)n2-c2ccc(CN3CCC(C(=O)Nc4cccc5c4CN(C4CCC(=O)NC4=O)C5=O)CC3)cc2)cc1C(C)C (stereo not shown) [SDC-TRAP-0115]
85.9%

Query: % Remaining; subject: CCNC(=O)c1nnc(-c2cc(C(C)C)c(O)cc2O)n1-c1ccc(Oc2ccc(C(=O)N3CCC(COC(=O)Nc4cccc5c4CN(C4CCC(=O)NC4=O)C5=O)CC3)cc2)cc1 (stereo not shown) [SDC-TRAP-0125]
99.4%

Query: % Remaining; subject: CCNC(=O)c1nnc(-c2cc(C(C)C)c(O)cc2O)n1-c1ccc(C(=O)N(C)CC(=O)Nc2cccc3c2CN(C2CCC(=O)NC2=O)C3=O)cc1 (stereo not shown) [SDC-TRAP-0147]
98.1%

Query: % Remaining; subject: CCc1c2c(nc3ccc(O)cc13)-c1cc3c(c(=O)n1C2)COC(=O)C3(CC)OC(=O)N(C)CCCCN1CCN(Cc2ccc(-n3c(O)nnc3-c3cc(C(C)C)c(O)cc3O)cc2)CC1 (stereo not shown) [SDC-TRAP-0055]
103%
